Target: Induced myeloid leukemia cell differentiation protein Mcl-1 (Homo sapiens) (UniProt Q07820)
Sequence (Q07820 whole entry, looked up): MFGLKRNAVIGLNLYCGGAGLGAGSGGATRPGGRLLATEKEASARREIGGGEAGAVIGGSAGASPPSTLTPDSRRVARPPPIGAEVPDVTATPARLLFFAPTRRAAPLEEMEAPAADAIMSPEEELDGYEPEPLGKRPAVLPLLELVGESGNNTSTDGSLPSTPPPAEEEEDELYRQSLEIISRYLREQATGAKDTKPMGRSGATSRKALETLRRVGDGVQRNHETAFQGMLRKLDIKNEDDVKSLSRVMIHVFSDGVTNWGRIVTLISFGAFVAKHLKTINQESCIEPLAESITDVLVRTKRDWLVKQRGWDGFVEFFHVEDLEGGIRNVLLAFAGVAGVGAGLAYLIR
Assay: Mcl-1/Noxa binding inhibitor potency, dose response, biochemical, TR-FRET (AID 1417)
Conditions: Mcl-1/Noxa peptide interaction, cell-free TR-FRET (terbium/rhodamine), 2 h; measured here: absolute IC50
In this section we review reported pIC50 values for a set of compounds.
A value of pIC50 is the negative decimal logarithm of a concentration given in moles per litre.

CC(/C=C/c1ccco1)=N\NC(=O)c1cc(C)[nH]n1 : 5.25
O=C(Nc1ccc([N+](=O)[O-])cc1)Nc1nc(-c2ccc(Cl)s2)cs1 : 5.74
Cc1c(Cl)cnc(NC(=O)COC(=O)c2ccc([N+](=O)[O-])s2)c1Cl : 5.15
CCOc1ccc(C(Nc2cccnc2)c2cc(Cl)c3cccnc3c2O)cc1 (stereo not drawn) : 5.49
S=c1[nH]nc(-c2cc(-c3ccccc3)n[nH]2)n1/N=C/C(Br)=C/c1ccccc1 : 5.13

query: Quick check: pIC50 of "Nc1ccc(-c2nc3cc([N+](=O)[O-])ccc3o2)cc1" ?
result: 5.15

query: And then "CNCc1ccccc1OCc1ccccc1F" , what is it?
result: 5.28

query: And then "C=CCn1c(C)cc(C(=O)Cn2ncc(Cl)c(Cl)c2=O)c1C" , what is it?
result: 5.51

query: And then "CN1CCN(c2ccc(Cl)cc2NC(=O)c2ccc(S(=O)(=O)N3CCCCCC3)cc2)CC1" , what is it?
result: 5.41

query: And then "COc1ccc(-c2cc3nc4ccccc4n3c(N)c2C#N)cc1" , what is it?
result: 5.35

query: And then Cc1[nH]n(-c2ncc(-c3ccccc3)s2)c(=O)c1C(c1ccc(Br)cc1)C(C#N)C#N (stereo not drawn) , what is it?
result: 5.18

query: And then "COC(=O)c1cc(-c2ccc(C)o2)nc2ccccc12" , what is it?
result: 4.83

query: And then "COC(=O)N/N=C/c1cc(N=Nc2ccccc2Cl)ccc1O" , what is it?
result: 5.43

query: And then "CC(/C=N\Nc1nnc2c(n1)[nH]c1c(C)cccc12)=C\c1ccco1" , what is it?
result: 5.45

====

Biological target: Induced myeloid leukemia cell differentiation protein Mcl-1 (Homo sapiens)
Assay: Mcl-1/Noxa binding inhibitor potency, dose response, biochemical, TR-FRET (AID 1417)
Conditions: Mcl-1/Noxa peptide interaction, cell-free TR-FRET (terbium/rhodamine), 2 h; measured here: absolute IC50
In this section we review reported pIC50 values for a set of compounds.
A value of pIC50 is the negative decimal logarithm of a concentration given in moles per litre.

O=C1Nc2ccc(Br)cc2/C1=C/C(=O)c1ccc2c(c1)OCO2 : 5.86
COc1ccc(-c2cnnc(N/N=C/c3ccc(O)cc3)n2)cc1 : 5.08
NC(=O)c1c(NC(=O)CSc2nnc(-c3ccco3)n2-c2ccccc2)sc2c1CCC2 : 5.24
CCOc1ccc(/C=C/[N+](=O)[O-])c2ccccc12 : 5.77
CCNc1ccc(Br)cc(C(=O)/C=C/c2c(Cl)cccc2Cl)c1=O : 5.74

query: Give recorded pIC50 with Induced myeloid leukemia cell differentiation protein Mcl-1 (Homo sapiens) for the following compound: "O=C(N/N=C\C=C\c1ccco1)c1cc(-c2ccc3ccccc3c2)n[nH]1"
result: 5.68

query: And then "O=C(Nc1nc2ccccc2[nH]1)c1ccc(Cl)c([N+](=O)[O-])c1" , what is it?
result: 5.06
